Read-out: Interferon-gamma inducible Protein 10 (IP10), CXCL10 (gene 3627)
Assay: BSK_KF3CT_IP10: BioMAP Diversity Plus: KF3CT Assay for Interferon-gamma inducible Protein 10 (IP10) Biomarker Activity (AID 2283068)
Details: primary human keratinocytes with fibroblasts; actives raise or lower the signal
Active and inactive are the calls of the source. Rule for the calls: active = hit-call score of the fitted dose curve at least 0.9, where 1 is the maximum; inactive = score below 0.9.
Lab note: assign the record to one of active, inactive

compound	category
BrCCBr	inactive
CC(=O)C(Cl)C(=O)N(C)C (configuration not stated)	inactive
C[C@]12CCC(=O)C[C@@H]1CC[C@@H]1[C@@H]2CC[C@]2(C)[C@@H](O)CC[C@@H]12	inactive

INPUT: Answer briefly: the call reported for Oc1c(I)cc(I)cc1I in this assay.
OUTPUT: active

INPUT: Answer briefly: the call reported for CCOC(=O)/C=C(C)/C=C/C[C@@H](C)CCCC(C)C in this assay.
OUTPUT: active

INPUT: Answer briefly: the call reported for COP(=S)(OC)Oc1cc(Cl)c(Cl)cc1Cl in this assay.
OUTPUT: inactive

INPUT: Answer briefly: the call reported for NC(=S)Nc1ccccc1 in this assay.
OUTPUT: inactive
